The measurements presented in this section are drawn from ChEMBL document CHEMBL1131513.

# studySystem: KinA/Spo0F (sporulation kinase A/sporulation initiation phosphotransferase F) (Bacillus subtilis (strain 168), UniProt P06628+P16497)
# protocolDescription: Ability to inhibit autophosphorylation of KinA/Sp0F assay
# Format: protein assay
Entries annotated with measured IC50
measure: IC50

CC(C)c1ccc(-c2n[nH]c(-c3cc(Cl)cc(Cl)c3O)n2)cc1 ... > 500 µM
CC(C)(C)c1cc(-c2n[nH]c(-c3ccc(Cl)c(Cl)c3)n2)c(O)c(C(C)(C)C)c1 ... > 500 µM
O=[N+]([O-])c1ccc(-c2nc(-c3cc(Cl)cc(Cl)c3O)n[nH]2)cc1 ... > 500 µM
